As a worked illustration, we turn to Ki data collected for Adenosine receptor A3 (Homo sapiens).
Quick reminder: number only, in nM, skip the unit.

Field: example entries. Status: answers known.
>>> print(df.to_string())
                           substance_smiles                         target_entity  measured_endpoint  numeric_result
0  Cc1cc(-c2sc(NC(=O)N3CC4(COC4)C3)nc2-c2cccc(C#N)c2C)cc(C)n1  Adenosine receptor A3 (Homo sapiens)                 Ki             537
1  Cc1cc(-c2sc(NC(=O)N3CC[C@@H]3C)nc2-c2cccc(C#N)c2)cc(C)n1  Adenosine receptor A3 (Homo sapiens)                 Ki              94
2  Cc1cc(-c2sc(NC(=O)N3CCC(C)(C#N)CC3)nc2-c2cccc(C#N)c2)c(F)c(C)n1  Adenosine receptor A3 (Homo sapiens)                 Ki            1210
3  Cc1cc(-c2sc(NC(=O)N3CC4(CCOCC4)C3)nc2-c2cccc(C#N)c2)cc(C)n1  Adenosine receptor A3 (Homo sapiens)                 Ki             268
4  Cc1cc(-c2sc(NC(=O)N3CCOC[C@@H]3CO)nc2-c2cccc(C#N)c2)cc(C)n1  Adenosine receptor A3 (Homo sapiens)                 Ki             321

The molecule identified as Cc1cc(-c2sc(NC(=O)N3CC4(CNC(=O)N4)C3)nc2-c2cccc(C#N)c2)cc(C)n1 registered its Ki at 212

The molecule identified as Cc1cc(-c2sc(NC(=O)N3CCC4(CC3)CNC(=O)O4)nc2-c2cccc(C#N)c2)cc(C)n1 registered its Ki at 368

The molecule identified as Cc1cc(-c2sc(NC(=O)N3CC(C)(C#N)C3)nc2-c2cccc(C#N)c2)c(F)c(C)n1 registered its Ki at 217

* * *

# maps each entry to its pKi
Molecular target: Adenosine receptor A2a (Homo sapiens)
Sequence (P29274 whole entry): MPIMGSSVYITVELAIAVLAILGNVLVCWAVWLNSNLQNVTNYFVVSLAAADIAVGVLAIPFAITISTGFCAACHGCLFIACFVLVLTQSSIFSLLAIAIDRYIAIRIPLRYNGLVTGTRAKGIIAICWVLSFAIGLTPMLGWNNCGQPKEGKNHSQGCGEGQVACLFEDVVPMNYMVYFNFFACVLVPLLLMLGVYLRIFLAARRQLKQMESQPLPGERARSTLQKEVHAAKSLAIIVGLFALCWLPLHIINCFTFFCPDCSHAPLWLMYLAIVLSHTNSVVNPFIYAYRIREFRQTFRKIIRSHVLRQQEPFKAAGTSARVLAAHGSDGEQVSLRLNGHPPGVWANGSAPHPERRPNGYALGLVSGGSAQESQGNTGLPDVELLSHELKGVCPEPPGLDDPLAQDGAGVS
Please keep in mind that pKi is minus log10 of the molar concentration; only the number is needed.

Field: example entries. Status: answers known.
>>> df
                                   compound                          target_entity  measured_endpoint  numeric_result
0  Cc1cc(-c2sc(NC(=O)N3CC(C)(O)C3)nc2-c2cccc(C#N)c2)c(F)c(C)n1 [US20230293517, Example 6.67]  Adenosine receptor A2a (Homo sapiens)                pKi            8.69
1  Cc1cc(-c2sc(NC(=O)N3CCOC[C@@H]3CO)nc2-c2cccc(C#N)c2)cc(C)n1 [US20230293517, Example 6.76]  Adenosine receptor A2a (Homo sapiens)                pKi            7.89
2  Cc1cc(-c2sc(NC(=O)N3CC[C@H]3CO)nc2-c2cccc(C#N)c2)cc(C)n1 [US20230293517, Example 6.73]  Adenosine receptor A2a (Homo sapiens)                pKi            8.60
3  Cc1cc(-c2sc(NC(=O)N3CC4(CNC(=O)N4)C3)nc2-c2cccc(C#N)c2)cc(C)n1 [US20230293517, Example 6.57]  Adenosine receptor A2a (Homo sapiens)                pKi            9.06
4  Cc1cc(-c2sc(NC(=O)N3CC4(CCOCC4)C3)nc2-c2cccc(C#N)c2)cc(C)n1 [US20230293517, Example 6.54]  Adenosine receptor A2a (Homo sapiens)                pKi            9.42

The reported Adenosine receptor A2a (Homo sapiens) pKi of Cc1cc(-c2sc(NC(=O)N3CC[C@@H]3CO)nc2-c2cccc(C#N)c2)cc(C)n1 [US20230293517, Example 6.91] is 8.78

The reported Adenosine receptor A2a (Homo sapiens) pKi of Cc1cc(-c2sc(NC(=O)N3CC(C)(C#N)C3)nc2-c2cccc(C#N)c2)c(F)c(C)n1 [US20230293517, Example 6.68] is 9.44

The reported Adenosine receptor A2a (Homo sapiens) pKi of Cc1cc(-c2sc(NC(=O)N3CCC[C@H]3CO)nc2-c2cccc(C#N)c2)cc(C)n1 [US20230293517, Example 6.71] is 8.46

The reported Adenosine receptor A2a (Homo sapiens) pKi of Cc1cc(-c2sc(NC(=O)N3CCC(C)(C#N)CC3)nc2-c2cccc(C#N)c2)c(F)c(C)n1 [US20230293517, Example 6.66] is 9.37

The reported Adenosine receptor A2a (Homo sapiens) pKi of Cc1cc(-c2sc(NC(=O)N3CCC4(CC3)CNC4=O)nc2-c2cccc(C#N)c2)c(F)c(C)n1 [US20230293517, Example 6.69] is 9.03

Sourced from BindingDB's records for patent US20230293517
